Origin of the recorded values: ChEMBL document CHEMBL1201862

Each record here notes measured GI50.
Test system: U-251
assay.summary: NCI tumour cell line growth inhibition, 48 h
Calls of active or inactive are those of the source. Rule as the data show it: active = GI50 up to about 1.1 µM and inactive = higher.

Known results for compounds:
Looking up O=C1C2=C(c3ccccc31)C(c1ccccc1)N1C(=O)CSC1=N2 (configuration not stated) , I found its GI50 recorded as > 63 µM (inactive)

Looking up CCOC(=O)c1cnc2oc(/C=N/N3CC(CN4CCOCC4)OC3=O)cc2c1O (configuration not stated) , I found its GI50 recorded as > 100 µM (inactive)

***
Looking up Cc1c(N)nc([C@H](CC(N)=O)NC[C@H](N)C(N)=O)nc1C(=O)N[C@H](C(=O)N[C@H](C)[C@@H](O)CC(=O)N[C@H](C(=O)NC(O[C@@H]1O[C@@H](C)[C@@H](N)[C@@H](O)[C@H]1O)C(O)c1nc(-c2nc(C(=O)NCCC[S+](C)C)cs2)cs1)[C@@H](C)O)[C@H](O[C@@H]1O[C@@H](CO)[C@@H](O)[C@H](O)[C@@H]1O[C@H]1O[C@H](CO)[C@@H](O)[C@H](OC(N)=O)[C@@H]1O)c1c[nH]cn1 (some centres not stated) , I found its GI50 recorded as 92.5 µM (inactive)

Looking up CC(CCC=O)CCOCc1ccccc1 (configuration not stated) , I found its GI50 recorded as > 100 µM (inactive)

----------
Test system: MDA-MB-435
assay.summary: NCI tumour cell line growth inhibition, 48 h
Activity calls are given as the source filed them. Cut-off read from the data, not from the text of the source: active = GI50 up to about 1.1 µM and inactive = higher.
In this exercise, the only acceptable responses are class 1 = active, class 0 = inactive

What was the test verdict on O=P(O)(O)CN1CCNCCN(CP(=O)(O)O)CCNCC1 ?
class 0

----------
Each record here notes measured GI50.
Test system: MOLT-4
assay.summary: NCI tumour cell line growth inhibition, 48 h
Activity calls are given as the source filed them. No stated cut-off is given here; in the data, active = GI50 up to about 1.1 µM and inactive = higher. Where a SMILES comes first, the peptide text is derived from it. The star is where a group is joined. Cbz = O=C(OCc1ccccc1)*

Looking up COCN1C(=O)[C@@H]2CCCN2C(=O)c2ccc(Cl)cc21 , I found its GI50 recorded as > 100 µM (inactive)

Looking up CCCCCCCCCCCC1=C(O)C(=O)C(CC2=C(O)C(=O)C(CCCCCCCCCCC)=C(O)C2=O)=C(O)C1=O , I found its GI50 recorded as > 100 µM (inactive)

Looking up COc1ccc(C2=NN(C(=N)S)C(c3ccccc3)C2)cc1 (configuration not stated) , I found its GI50 recorded as 28 µM (inactive)

Looking up Cc1ccc(C(=O)CCC2C(=O)CC(C)(C)CC2=O)cc1 , I found its GI50 recorded as > 100 µM (inactive)

Looking up C[C@@H]1C[C@@]2(O[C@@H]2C)C(=O)O[C@@H]2CCN3CC=C(COC(=O)[C@]1(C)O)[C@H]23 , I found its GI50 recorded as > 100 µM (inactive)

Looking up CCOC(=O)CCC(NC(=O)C(Cc1ccccc1)NC(=O)OCc1ccccc1)C(=O)OCC (stereo not drawn) (Cbz-Phe-Glu(OEt)-OEt; configuration not given here) , I found its GI50 recorded as 30.2 µM (inactive)

Looking up N=C(N)SCCc1ccccn1 , I found its GI50 recorded as > 100 µM (inactive)

Looking up CCCCCCOC(=O)/C=C/[C@]1(CO)C/C(=C/CC(C(C)C)C(C)C)C(=O)O1 , I found its GI50 recorded as 1.58 µM (inactive)

Looking up COc1cc2c(c(OC(C)=O)c1OC(C)=O)-c1ccc(SC)c(=O)cc1C(NC(C)=O)CC2 (configuration not stated) , I found its GI50 recorded as 1.52 µM (inactive)

Looking up Clc1ccc(C2c3ccccc3-c3nc4ccccc4n32)cc1 (configuration not stated) , I found its GI50 recorded as 8.09 µM (inactive)

Looking up CC1=C(C#N)C(=O)CC(c2ccc(Cl)cc2)N(C)N1 (configuration not stated) , I found its GI50 recorded as > 100 µM (inactive)

Looking up CO/C(=N\N=C\c1ccc(Cl)c(Cl)c1)c1ccncc1 , I found its GI50 recorded as > 10 µM (inactive)

Looking up FC(F)(F)c1ccccc1/C=N/C12CC3CC(CC(C3)C1)C2 , I found its GI50 recorded as > 100 µM (inactive)

Looking up COc1ccc(CNc2nc(NCc3ccc(OC)cc3)nc(NC3CCCC3)n2)cc1 , I found its GI50 recorded as 4.59 µM (inactive)

Looking up Cc1n[nH]c(=O)n1C1CC1 , I found its GI50 recorded as > 100 µM (inactive)
